Molecular target: hpol η (Homo sapiens, UniProt Q9Y253)
Construct: human DNA polymerases η (amino acids 1-437); 6x-histidine (N, cleaved yes); GST (N, cleaved yes); made in house; host or cells: Escherichia coli BL21 (DE3)
Sequence (Q9Y253 1-437): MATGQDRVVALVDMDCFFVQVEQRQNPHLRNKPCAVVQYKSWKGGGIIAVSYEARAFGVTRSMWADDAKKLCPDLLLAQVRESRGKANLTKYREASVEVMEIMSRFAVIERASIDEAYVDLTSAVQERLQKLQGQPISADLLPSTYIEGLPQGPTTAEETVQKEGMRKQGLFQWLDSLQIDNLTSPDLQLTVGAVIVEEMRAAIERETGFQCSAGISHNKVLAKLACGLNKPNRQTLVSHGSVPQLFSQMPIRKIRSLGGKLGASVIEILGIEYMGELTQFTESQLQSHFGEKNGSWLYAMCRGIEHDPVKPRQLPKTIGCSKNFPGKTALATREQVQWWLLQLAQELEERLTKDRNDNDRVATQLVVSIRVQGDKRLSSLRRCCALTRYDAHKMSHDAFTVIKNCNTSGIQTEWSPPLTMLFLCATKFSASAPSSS
Assay: Fluorescence-based DNA polymerase strand-displacement assay
Assay type: biochemical
Readout type: pIC50
The read-out pIC50 is expressed as -log10 of concentration in moles per litre.

Report pIC50 for O=C1NC(=S)NC(=O)C1=Cc1cn(C(=O)c2cccc3ccccc23)c2ccc(Cl)cc12 [ITBA-17] please. 4.80

* * *

Target: EndoG (Homo sapiens, UniProt Q14249)
Sequence (Q14249 49-297, species assumed): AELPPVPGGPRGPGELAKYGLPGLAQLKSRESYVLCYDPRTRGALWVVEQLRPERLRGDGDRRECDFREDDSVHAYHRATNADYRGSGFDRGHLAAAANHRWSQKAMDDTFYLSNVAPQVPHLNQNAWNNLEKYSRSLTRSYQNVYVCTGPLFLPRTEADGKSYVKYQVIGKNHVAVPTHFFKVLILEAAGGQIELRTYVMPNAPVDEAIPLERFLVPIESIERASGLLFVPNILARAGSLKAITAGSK
Assay: High-throughput EndoG screening assay
Format: biochemical
Settings: 20 min; compound 1 μM; read-out: % EndoG activity in the presence of the compound
Readout type: remaining activity at 1 µM (%)
Your answer is read as %, so omit the unit and give the number.

1. COc1ccc2c(c1)c(C=C1C(=O)NC(=S)NC1=O)cn2Cc1ccc2ccccc2c1 : 13.8

Report remaining activity at 1 µM for `O=C1NC(=S)NC(=O)C1=Cc1cn(Cc2cccc3ccccc23)c2ccccc12` please. 16

Report remaining activity at 1 µM for `COc1ccc2c(c1)c(C=C1C(=O)NC(=S)NC1=O)cn2Cc1cccc(C(F)(F)F)c1` please. 28.8

Report remaining activity at 1 µM for `COc1ccc2c(c1)c(C=C1C(=O)NC(=S)NC1=O)c(C)n2Cc1cccc2ccccc12` please. 19.1

Report remaining activity at 1 µM for `Cc1c(C=C2C(=O)NC(=S)NC2=O)c2ccccc2n1Cc1cccc(C(F)(F)F)c1` please. 73.6

Report remaining activity at 1 µM for `CN1C(=O)C(=Cc2cn(C(=O)c3cccc4ccccc34)c3ccc(Cl)cc23)C(=O)N(C)C1=O` please. 47.5

Report remaining activity at 1 µM for `CN1C(=O)C(=Cc2cn(Cc3cccc4ccccc34)c3ccc(Br)cc23)C(=O)N(C)C1=O` please. 45.8

Report remaining activity at 1 µM for `COc1ccc2c(c1)c(C=C1C(=O)NC(=S)NC1=O)c(C)n2C(=O)c1cccc2ccccc12` please. 63.5

Report remaining activity at 1 µM for `Cc1c(C=C2C(=O)NC(=S)NC2=O)c2ccccc2n1Cc1ccc([N+](=O)[O-])cc1` please. 69.8

Report remaining activity at 1 µM for `O=C1NC(=S)NC(=O)C1=Cc1cn(Cc2cccc3ccccc23)c2ccc(Cl)cc12` please. 3.5

Report remaining activity at 1 µM for `COc1ccc2c(c1)c(C=C1C(=O)NC(=S)NC1=O)cn2Cc1cccc2ccccc12` please. 9.55
